Entries below carry reported pIC50 on rhLOXL2 (Homo sapiens (Human), UniProt Q9Y4K0).
Sequence (Q9Y4K0 26-774): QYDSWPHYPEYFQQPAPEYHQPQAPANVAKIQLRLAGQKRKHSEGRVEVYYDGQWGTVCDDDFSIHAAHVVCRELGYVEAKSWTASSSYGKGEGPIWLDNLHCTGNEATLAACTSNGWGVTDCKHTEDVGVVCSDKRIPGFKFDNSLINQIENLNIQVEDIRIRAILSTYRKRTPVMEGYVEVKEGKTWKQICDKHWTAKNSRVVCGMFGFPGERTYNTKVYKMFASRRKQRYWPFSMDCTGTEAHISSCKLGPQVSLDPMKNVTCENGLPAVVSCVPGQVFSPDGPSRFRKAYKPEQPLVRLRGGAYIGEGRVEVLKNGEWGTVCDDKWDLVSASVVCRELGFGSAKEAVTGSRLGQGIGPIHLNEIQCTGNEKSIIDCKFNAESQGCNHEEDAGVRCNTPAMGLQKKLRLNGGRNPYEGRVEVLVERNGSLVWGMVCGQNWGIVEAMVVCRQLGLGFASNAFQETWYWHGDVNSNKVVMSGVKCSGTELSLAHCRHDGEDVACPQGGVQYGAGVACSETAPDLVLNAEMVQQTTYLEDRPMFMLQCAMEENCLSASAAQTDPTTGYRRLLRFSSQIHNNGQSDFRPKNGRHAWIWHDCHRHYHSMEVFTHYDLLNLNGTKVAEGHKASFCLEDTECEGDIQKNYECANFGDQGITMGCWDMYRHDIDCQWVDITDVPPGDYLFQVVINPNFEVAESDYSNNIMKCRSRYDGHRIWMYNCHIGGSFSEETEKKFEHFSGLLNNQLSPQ
pIC50: −log10 of the molar value. Structures can show the parent of a compound that is named as a salt.

Give one value of pIC50 per listed compound.
1. NC/C=C(\F)CS(=O)(=O)c1ccc(C(=O)NCc2cn(CCOCCOCCOCCNC(=O)CCCC[C@@H]3SC[C@@H]4NC(=O)N[C@@H]43)nn2)cc1 [Compound 1-7, hydrochloride]
2. NC/C=C(\F)CS(=O)(=O)c1cccc(C(=O)Nc2cc(C(=O)N3CCN(C(=O)CCCC[C@@H]4SC[C@@H]5NC(=O)N[C@@H]54)CC3)cc(C(=O)N3CCN(C(=O)CCCC[C@@H]4SC[C@@H]5NC(=O)N[C@@H]54)CC3)c2)c1 [Compound 1-10, hydrochloride]

Reply:
["< 6.52", "< 6.52"]

Give one value of pIC50 per listed compound.
1. Cc1c(-c2cccc(S(=O)(=O)N(C)C)c2)c2cc(C(=O)Nc3cc(C(=O)NCCCCCNC(=O)CCCC[C@@H]4SC[C@@H]5NC(=O)N[C@@H]54)cc(C(=O)NCCCCCNC(=O)CCCC[C@@H]4SC[C@@H]5NC(=O)N[C@@H]54)c3)ccc2n1C/C(F)=C/CN [Compound 1-5, hydrochloride]
2. NC/C=C(\F)CS(=O)(=O)c1cccc(OCCCc2cn(CCCCC[C@@H]3SC[C@@H]4NC(=O)N[C@@H]43)nn2)c1 [Compound 1-11, hydrochloride]
3. NC/C=C(\F)CS(=O)(=O)c1cccc(Cn2cc(-c3cc(OCCCc4cn(CCCCC[C@@H]5SC[C@@H]6NC(=O)N[C@@H]65)nn4)cc(OCCCc4cn(CCCCC[C@@H]5SC[C@@H]6NC(=O)N[C@@H]65)nn4)c3)nn2)c1 [Compound 1-12, hydrochloride]
4. Cc1c(Cc2ccc(S(=O)(=O)N(C)C)cc2)c2cc(C(=O)N3CCN(C(=O)CCCC[C@@H]4SC[C@@H]5NC(=O)N[C@@H]54)CC3)ccc2n1C/C(F)=C/CN [Compound 1-1, hydrochloride]
5. CN(C)S(=O)(=O)c1ccc(C(OCc2ccc(-n3cc(CNC(=O)CCOCCOCCOCCOCCNC(=O)CCCC[C@@H]4SC[C@@H]5NC(=O)N[C@@H]54)nn3)cc2)c2cn(C/C(F)=C/CN)nn2)cc1 (stereo partly drawn) [Compound 1-16, hydrochloride]
6. Cc1c(-c2cccc(S(=O)(=O)N(C)C)c2)c2cc(C(=O)Nc3ccc4c(c3)n(CCn3cc(CCNC(=O)CCCC[C@@H]5SC[C@@H]6NC(=O)N[C@@H]65)nn3)c(=O)n4CCn3cc(CCNC(=O)CCCC[C@@H]4SC[C@@H]5NC(=O)N[C@@H]54)nn3)ccc2n1C/C(F)=C/CN [Compound 1-4, hydrochloride]
7. Cc1c(-c2cccc(S(=O)(=O)N(C)C)c2)c2cc(C(=O)Nc3ccc4c(c3)n(Cc3cn(CCOCCOCCOCCNC(=O)CCCC[C@@H]5SC[C@@H]6NC(=O)N[C@@H]65)nn3)c(=O)n4Cc3cn(CCOCCOCCOCCNC(=O)CCCC[C@@H]4SC[C@@H]5NC(=O)N[C@@H]54)nn3)ccc2n1C/C(F)=C/CN [Compound 1-3, hydrochloride]

Reply:
> 6.52
> 6.52
> 6.52
> 6.52
> 6.52
> 6.52
> 6.52

Give one value of pIC50 per listed compound.
1. NC/C=C(\F)CS(=O)(=O)c1ccccc1C(=O)NCCCCCNC(=O)CCCC[C@@H]1SC[C@@H]2NC(=O)N[C@@H]21 [Compound 1-8, hydrochloride]
2. NC/C=C(\F)CS(=O)(=O)c1cccc(NCCCc2cn(CCCCC[C@@H]3SC[C@@H]4NC(=O)N[C@@H]43)nn2)c1 [Compound 1-14, hydrochloride]
3. Cc1c(-c2cccc(S(=O)(=O)N(C)C)c2)c2cc(-c3cn(-c4cc(C(=O)NCCCCCNC(=O)CCCC[C@@H]5SC[C@@H]6NC(=O)N[C@@H]65)cc(C(=O)NCCCCCNC(=O)CCCC[C@@H]5SC[C@@H]6NC(=O)N[C@@H]65)c4)nn3)ccc2n1C/C(F)=C/CN [Compound 1-6, hydrochloride]
4. CN(C)S(=O)(=O)c1ccc(C(OCc2ccc(-n3cc(CNC(=O)CCCC[C@@H]4SC[C@@H]5NC(=O)N[C@@H]54)nn3)cc2)c2cn(C/C(F)=C/CN)nn2)cc1 (stereo partly drawn) [Compound 1-15, hydrochloride]

Reply:
< 6.52
< 6.52
> 6.52
> 6.52

Give one value of pIC50 per listed compound.
1. NC/C=C(\F)CS(=O)(=O)c1cccc(C(=O)NCCCCCNC(=O)CCCC[C@@H]2SC[C@@H]3NC(=O)N[C@@H]32)c1 [Compound 1-9, hydrochloride]
2. NC/C=C(\F)CS(=O)(=O)c1cccc(N(CCCc2cn(CCCCC[C@@H]3SC[C@@H]4NC(=O)N[C@@H]43)nn2)CCCc2cn(CCCCC[C@@H]3SC[C@@H]4NC(=O)N[C@@H]43)nn2)c1 [Compound 1-13, hydrochloride]

Reply:
1. < 6.52
2. < 6.52
